Reported yeast fitness values for the following variants.
B1: tRNA (parent)
chain: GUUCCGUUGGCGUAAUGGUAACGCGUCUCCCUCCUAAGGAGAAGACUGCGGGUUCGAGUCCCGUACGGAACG

# Variants of: B1
# TEST_SUMMARY: yeast fitness relative to wild type (ratio to wild type); higher = fitter; tRNA-Arg(CCU), competitive growth, 37 C, YPD
This sample holds only a part of the variants without activity.
REPORTED_PROPERTY: yeast fitness

MUTANT_LABEL: U8A G18A C30A U32A U35G A65C
COMPARATOR: ≤
VALUE: 0.5
--
MUTANT_LABEL: G9C C24G C29G C55U A70G
COMPARATOR: ≤
VALUE: 0.5
--
MUTANT_LABEL: A14G G38A A40C G50A U54A
COMPARATOR: =
VALUE: 0.523
--
MUTANT_LABEL: U7C C46A
COMPARATOR: =
VALUE: 0.798
--
MUTANT_LABEL: C5G C22A U26C C33G
COMPARATOR: =
VALUE: 0.564
--
MUTANT_LABEL: G17C G51A A65C
COMPARATOR: ≤
VALUE: 0.5
--
MUTANT_LABEL: U8A C29G A40G
COMPARATOR: =
VALUE: 0.639
--
MUTANT_LABEL: C5G A20C G48A
COMPARATOR: ≤
VALUE: 0.5
--
MUTANT_LABEL: C30A G38C C61A
COMPARATOR: =
VALUE: 0.51
--
MUTANT_LABEL: A15G G63C
COMPARATOR: =
VALUE: 0.918
--
MUTANT_LABEL: G10A U32A
COMPARATOR: =
VALUE: 0.601
--
MUTANT_LABEL: A21C C22G A70C
COMPARATOR: ≤
VALUE: 0.5
--
MUTANT_LABEL: U16A C24U G44C C61U C66U
COMPARATOR: ≤
VALUE: 0.5
--
MUTANT_LABEL: U32C C46G U59C G63C G68C
COMPARATOR: ≤
VALUE: 0.5
--
MUTANT_LABEL: C22U A69U
COMPARATOR: =
VALUE: 0.799
--
MUTANT_LABEL: C5G A20G G58C
COMPARATOR: =
VALUE: 0.648
--
MUTANT_LABEL: C4A U32C A42C
COMPARATOR: =
VALUE: 0.578
--
MUTANT_LABEL: U2G U47G
COMPARATOR: =
VALUE: 0.546
--
MUTANT_LABEL: U26G C31G A40C C49U C66A
COMPARATOR: =
VALUE: 0.587
--
MUTANT_LABEL: C11U U32C C33U C62U A65G
COMPARATOR: ≤
VALUE: 0.5
--
MUTANT_LABEL: U26C G56C A57C A70U
COMPARATOR: ≤
VALUE: 0.5
--
MUTANT_LABEL: G10A U26C A36G G56A
COMPARATOR: ≤
VALUE: 0.5
--
MUTANT_LABEL: C5G A37C A42U
COMPARATOR: =
VALUE: 0.533
--
MUTANT_LABEL: A15U U35A G50C A65C
COMPARATOR: ≤
VALUE: 0.5
--
MUTANT_LABEL: A14G A43C G52C
COMPARATOR: ≤
VALUE: 0.5
--
MUTANT_LABEL: C30G G51C G56U
COMPARATOR: =
VALUE: 0.628
--
MUTANT_LABEL: C30G C46A C60A
COMPARATOR: ≤
VALUE: 0.5
--
MUTANT_LABEL: U26A C30A C34A A45C
COMPARATOR: ≤
VALUE: 0.5
--
MUTANT_LABEL: A20U A43U C55A U64A
COMPARATOR: ≤
VALUE: 0.5
--
MUTANT_LABEL: G25C A42U
COMPARATOR: =
VALUE: 0.869
--
MUTANT_LABEL: C27A U35A
COMPARATOR: =
VALUE: 0.662
--
MUTANT_LABEL: U2A G50C C55G C62G
COMPARATOR: ≤
VALUE: 0.5
--
MUTANT_LABEL: G6C A20G C61A
COMPARATOR: ≤
VALUE: 0.5
--
MUTANT_LABEL: C24A U59C
COMPARATOR: =
VALUE: 0.553
--
MUTANT_LABEL: A21G C31U
COMPARATOR: =
VALUE: 0.872
--
MUTANT_LABEL: A21U U32A A70G
COMPARATOR: ≤
VALUE: 0.5
--
MUTANT_LABEL: C4U A37C G50C A57G
COMPARATOR: ≤
VALUE: 0.5
